# target.system: serotonin (5-HT) reuptake (Rattus norvegicus)
# Construct: synaptosomes are freshly isolated from areas of the rat brain; from tissue; host or cells: rat brain synaptosomes (P2 fraction)
# Sequence (P31652 whole entry): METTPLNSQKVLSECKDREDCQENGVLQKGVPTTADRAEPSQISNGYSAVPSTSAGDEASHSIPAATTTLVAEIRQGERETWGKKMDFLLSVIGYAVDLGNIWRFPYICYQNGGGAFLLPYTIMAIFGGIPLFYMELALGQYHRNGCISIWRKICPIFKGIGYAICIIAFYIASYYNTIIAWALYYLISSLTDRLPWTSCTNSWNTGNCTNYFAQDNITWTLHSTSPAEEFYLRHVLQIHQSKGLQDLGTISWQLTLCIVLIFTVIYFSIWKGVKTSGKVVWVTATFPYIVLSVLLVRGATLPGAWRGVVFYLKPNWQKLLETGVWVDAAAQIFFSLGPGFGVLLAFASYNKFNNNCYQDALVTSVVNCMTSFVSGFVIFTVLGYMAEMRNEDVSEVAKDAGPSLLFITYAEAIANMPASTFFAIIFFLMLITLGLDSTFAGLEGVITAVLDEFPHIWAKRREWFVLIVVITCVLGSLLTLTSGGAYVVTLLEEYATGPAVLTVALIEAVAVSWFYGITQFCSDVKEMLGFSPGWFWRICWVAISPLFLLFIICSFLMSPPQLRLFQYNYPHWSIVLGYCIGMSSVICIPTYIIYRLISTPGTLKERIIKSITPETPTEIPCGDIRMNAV
# test.summary: Inhibition of serotonin (5HT) reuptake in synaptosomes from rat brain
# Type: biochemical
# cond: test concentration of 10 μM; read-out: 5-HT (inhibition of reuptake of serotonin, % inhibition)
Can you tell me inhibition at 10 µM for the items I'm about to list?
Note: state the figure and append the unit.

Q) Name the recorded inhibition at 10 µM for COc1ccc(S(=O)(=O)N(C)CCOCC(=O)NCC2CCC(C(c3ccccc3)N(C)C)CC2)cc1OC (centres unmarked) .
A) 94%

Q) Name the recorded inhibition at 10 µM for COc1ccc(S(=O)(=O)N(C)CCOCC(=O)NCCC2CCC(C(c3cccs3)N(C)C)CC2)cc1 (centres unmarked) .
A) 83%

Q) Name the recorded inhibition at 10 µM for COc1ccc(S(=O)(=O)N2CCCCC2CCOCC(=O)NCCC2CCC(C(c3cccs3)N(C)C)CC2)cc1 (centres unmarked) .
A) 96%

Q) Name the recorded inhibition at 10 µM for COc1cc(C)c(S(=O)(=O)N2CCC(CCOCC(=O)NC3CCC(C(c4cccs4)N(C)C)CC3)CC2)c(C)c1C (centres unmarked) .
A) 87%

Q) Name the recorded inhibition at 10 µM for COc1cc(C)c(S(=O)(=O)N2CCC(OCC(=O)NCC3CCC(C(c4cccs4)N(C)C)CC3)CC2)c(C)c1C (centres unmarked) .
A) 93%

Q) Name the recorded inhibition at 10 µM for COc1ccc(S(=O)(=O)N2CCCC2COCC(=O)NCCC2CCC(C(c3cccs3)N(C)C)CC2)cc1 (centres unmarked) .
A) 98%

Q) Name the recorded inhibition at 10 µM for CN(C)C(c1cccs1)C1CCC(NC(=O)COCCN(Cc2ccccc2)S(=O)(=O)c2ccccc2)CC1 (centres unmarked) .
A) 94%

Q) Name the recorded inhibition at 10 µM for COc1ccc(S(=O)(=O)N2CCC(OCC(=O)NC3CCC(C(c4cccs4)N(C)C)CC3)C2)cc1OC (centres unmarked) .
A) 87%

Q) Name the recorded inhibition at 10 µM for CN(C)C(c1ccccc1)C1CCC(NC(=O)COCC2CCCCN2S(=O)(=O)c2ccc(Cl)cc2)CC1 (centres unmarked) .
A) 84%

Q) Name the recorded inhibition at 10 µM for COc1ccc(S(=O)(=O)N2CCCCC2COCC(=O)NC2CCC(C(c3ccccc3)N(C)C)CC2)cc1 (centres unmarked) .
A) 90%

Q) Name the recorded inhibition at 10 µM for COc1cc(C)c(S(=O)(=O)N2CCN(CCOCC(=O)NC3CCC(C(c4ccccc4)N(C)C)CC3)CC2)c(C)c1C (centres unmarked) .
A) 96%

Q) Name the recorded inhibition at 10 µM for Cc1cc(C)c(S(=O)(=O)N2CCC(OCC(=O)NCC3CCC(C(c4cccs4)N(C)C)CC3)C2)c(C)c1 (centres unmarked) .
A) 84%

Q) Name the recorded inhibition at 10 µM for Cc1ccc(S(=O)(=O)N(C)CCOCC(=O)NCCC2CCC(C(c3cccs3)N(C)C)CC2)cc1 (centres unmarked) .
A) 85%

Q) Name the recorded inhibition at 10 µM for Cc1ccc(S(=O)(=O)N(C)CCOCC(=O)NCC2CCC(C(c3cccs3)N(C)C)CC2)cc1 (centres unmarked) .
A) 92%

Q) Name the recorded inhibition at 10 µM for COc1ccc(S(=O)(=O)N(C)CCOCC(=O)NC2CCC(C(c3cccs3)N(C)C)CC2)cc1 (centres unmarked) .
A) 77%

Q) Name the recorded inhibition at 10 µM for COc1cc(C)c(S(=O)(=O)N2CCC(CCOCC(=O)NC3CCC(C(c4cccc(F)c4)N(C)C)CC3)CC2)c(C)c1C (centres unmarked) .
A) 92%

Q) Name the recorded inhibition at 10 µM for CC(Oc1ccccc1)C(=O)NCC1CCC(C(c2cccc(F)c2)N(C)C)CC1 (centres unmarked) .
A) 63%

Q) Name the recorded inhibition at 10 µM for Cc1cc(C)c(S(=O)(=O)N(C)CCOCC(=O)NCC2CCC(C(c3cccs3)N(C)C)CC2)c(C)c1 (centres unmarked) .
A) 101%

Q) Name the recorded inhibition at 10 µM for CN(C)C(c1ccccc1)C1CCC(NC(=O)COCCN(Cc2ccccc2)S(=O)(=O)c2ccccc2)CC1 (centres unmarked) .
A) 88%

Q) Name the recorded inhibition at 10 µM for CN(C)C(c1cccs1)C1CCC(CNC(=O)COC2CCN(S(=O)(=O)c3ccc(Cl)cc3)C2)CC1 (centres unmarked) .
A) 84%

Q) Name the recorded inhibition at 10 µM for CN(C)C(c1cccc(F)c1)C1CCC(CCNC(=O)COCCN(C)S(=O)(=O)c2ccc(Cl)cc2Cl)CC1 (centres unmarked) .
A) 86%

Q) Name the recorded inhibition at 10 µM for CN(C)C(c1ccccc1)C1CCC(NC(=O)COCCN(C)S(=O)(=O)c2c(F)c(F)c(F)c(F)c2F)CC1 (centres unmarked) .
A) 83%

Q) Name the recorded inhibition at 10 µM for CN(C)C(c1cccc(F)c1)C1CCC(NC(=O)COC2CCN(S(=O)(=O)c3cccc(C(F)(F)F)c3)C2)CC1 (centres unmarked) .
A) 79%

Q) Name the recorded inhibition at 10 µM for COc1cc(C)c(S(=O)(=O)N2CCC(OCC(=O)NC3CCC(C(c4cccs4)N(C)C)CC3)CC2)c(C)c1C (centres unmarked) .
A) 94%

Q) Name the recorded inhibition at 10 µM for CN(C)C(c1ccccc1)C1CCC(CNC(=O)COC2CCN(S(=O)(=O)c3cccc(C(F)(F)F)c3)C2)CC1 (centres unmarked) .
A) 88%

Q) Name the recorded inhibition at 10 µM for COc1ccc(S(=O)(=O)N2CCCC2COCC(=O)NC2CCC(C(c3cccs3)N(C)C)CC2)cc1 (centres unmarked) .
A) 81%

Q) Name the recorded inhibition at 10 µM for CCN(CCOCC(=O)NC1CCC(C(c2cccc(F)c2)N(C)C)CC1)S(=O)(=O)c1c(C)cc(OC)c(C)c1C (centres unmarked) .
A) 90%

Q) Name the recorded inhibition at 10 µM for CN(C)C(c1cccs1)C1CCC(NC(=O)COC2CCN(S(=O)(=O)c3ccc(F)cc3)C2)CC1 (centres unmarked) .
A) 76%

Q) Name the recorded inhibition at 10 µM for COc1ccc(S(=O)(=O)N2Cc3ccccc3CC2COCC(=O)NC2CCC(C(c3cccs3)N(C)C)CC2)cc1 (centres unmarked) .
A) 98%
